The values you see were collected from PubChem BioAssay AID652126.

system: Nuclear hormone receptor DAF-12 (Strongyloides stercoralis); assay: S. stercoralis DAF-12 nuclear receptor activators, primary screen, cell-based, luminescence, HEK293, GRIP1 co-expression, lit1-tk-luc (AID 652126); details: HEK293 ssDAF-12/GRIP1 lit1-tk-luc reporter, at 6.8 µM, % of 3 µM dafachronic acid response;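 also: 0% = DMSO-only wells and 100% = 3 µM delta7-dafachronic acid wells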
Among all 370,000 compounds or so, about 3,700 (1%) were called active.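 The calls were made as follows: active = activation above the mean over all tested compounds plus 3 SD (cut at about 0.9% in these data); inactive = the rest.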 For the sample, actives were picked, then their nearest neighbours and some compounds at random.
Possible outcomes: T (active), F (inactive)

>>> classification("OCCC1CN(Cc2cnc(-c3ccccc3)s2)CCN1CCc1ccccc1 (stereo not drawn)")
"F"
>>> classification("CCC(=O)Nc1ccc2nn(-c3ccc(F)cc3)nc2c1")
"T"
>>> classification("CC(C)(C)c1ccc(CSc2nnc(-c3cccs3)o2)cc1")
"F"
>>> classification("O=C(O)c1n[nH]nc1-c1ccccc1")
"F"
>>> classification("COC(=O)[C@]1(C#N)CC(=O)N(CC2CCCCC2)[C@@H]1c1ccccc1")
"F"
>>> classification("c1coc(CCNc2ncnc3ccc(-c4ccc5c(c4)OCO5)cc23)c1")
"F"
>>> classification("CN(C)[C@H]1CCN(c2cccc3c2S(=O)(=O)N2CC[C@H](C2)O3)C1")
"F"
>>> classification("CN(C)CCNC(=O)Cc1ccc([N+](=O)[O-])cc1")
"F"

----------
system: Nuclear hormone receptor DAF-12 (Strongyloides stercoralis); test: S. stercoralis DAF-12 nuclear receptor activators, primary screen, cell-based, luminescence, HEK293, GRIP1 co-expression, lit1-tk-luc (AID 652126); conditions: HEK293 ssDAF-12/GRIP1 lit1-tk-luc reporter, at 6.8 µM, hits give high values, % of 3 µM dafachronic acid response;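 also: 0% = DMSO-only wells and 100% = 3 µM delta7-dafachronic acid wells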
The whole screen tested about 370,000 compounds, of which about 3,700 (1%) were called active. The list comes from a sample in which actives are over-represented; it also holds close analogues and randomly drawn compounds.
PARAMETER: activation (%)

>>> measured_value("COc1ccc(C#CCNCc2ccc(OC)cc2OC)cc1")
-1.38
>>> measured_value("Cc1ccc(-n2c(SCC(=O)Nc3ccc(S(=O)(=O)Nc4nccs4)cc3)nnc2-c2cccnc2)cc1")
-1.03
>>> measured_value("Cc1c(C(C)c2ccccc2O)[nH]c2ccccc12 (stereo not given)")
-0.11
>>> measured_value("CC1CCN(c2ccc(C(=O)O)cc2NS(=O)(=O)c2ccc(Br)s2)CC1")
-1.7
>>> measured_value("COc1cccc(CNC(=O)C2CCCN(c3nc4ccccc4o3)C2)c1OC (stereo not given)")
1.04
>>> measured_value("CCS(=O)(=O)c1cc([N+](=O)[O-])c(Sc2ccccc2N)s1")
0.94
>>> measured_value("CC(C)(C)OC(=O)NCc1cc(F)ccc1/C=C/S(=O)(=O)NCCc1ccccc1")
-1.87
>>> measured_value("CCOc1ccc(NC(=O)c2ccc(NC(=O)COC(=O)c3ccc(NC(=O)CC#N)cc3)cc2)cc1")
0.93
>>> measured_value("NC1=NN(c2cccc(C(=O)O)c2)C(=O)C1")
0.3
>>> measured_value("N#C/C(=C/c1ccc(Cl)cc1)NC(=O)c1ccccc1")
-1.06

----------
The entries below come with measured activation values attached.
tested on: Nuclear hormone receptor DAF-12 (Strongyloides stercoralis); test: S. stercoralis DAF-12 nuclear receptor activators, primary screen, cell-based, luminescence, HEK293, GRIP1 co-expression, lit1-tk-luc (AID 652126); settings: HEK293 ssDAF-12/GRIP1 lit1-tk-luc reporter, at 6.8 µM, hits give high values, % of 3 µM dafachronic acid response;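 also: 0% = DMSO-only wells and 100% = 3 µM delta7-dafachronic acid wells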
Out of some 370,000 compounds screened, about 3,700 (1%) were called active. This excerpt belongs to a sample that is enriched for actives.
PARAMETER: activation (%)

>>> measured_value("O=C1NC(Nc2nc3ccccc3s2)(C(F)(F)F)C(=O)N1C1CCCCC1 (configuration not stated)")
-1.03
>>> measured_value("COC(=O)C(NC(C)=O)(Nc1nc2c(s1)CCCC2)C(F)(F)F (configuration not stated)")
-0.86
>>> measured_value("CCC1([N+](=O)[O-])COC(c2ccc(C(C)C)cc2)OC1 (configuration not stated)")
-0.23
>>> measured_value("C[C@@H]1COc2cccc(N3CCCC3)c2S(=O)(=O)N1C")
-1.35
>>> measured_value("Cc1cc(C)nc(NS(=O)(=O)c2ccc(N/C=C\\C(=O)c3cccs3)cc2)n1")
1.14
>>> measured_value("CNC(=O)COc1ccc(S(=O)(=O)Nc2ccccc2)cc1")
-0.41
>>> measured_value("O=C(NCCc1ccc(C(F)(F)F)cc1)c1ccc2c(c1)OCO2")
-1.42
>>> measured_value("CC(C)c1ccc(C=NNc2ccc([N+](=O)[O-])cn2)cc1")
1.01
>>> measured_value("N#CCCN(C(=O)COC(=O)C1CCN(c2ccc(C(F)(F)F)cn2)CC1)c1ccc(F)cc1")
-1.01
>>> measured_value("COc1cc(NC(=O)C2CCCN(S(=O)(=O)c3ccc(C(C)(C)C)cc3)C2)cc(OC)c1 (configuration not stated)")
-0.79
>>> measured_value("COC(=O)C1CN(CCc2ccccc2)CCS(=O)(=O)N1Cc1cccc(Cl)c1 (configuration not stated)")
-0.43
>>> measured_value("Cc1ccc(Cn2cc(CN3[C@@H](C)COc4cc(Br)ccc4S3(=O)=O)nn2)cc1")
-1.02
